Source: paper PMC10973816

B1: mouse mGluR6 (metabotropic glutamate receptor 6), wild type, complex N-glycosylated form (upper dimer band, band C) [modified: complex N-glycosylation (Endo H-resistant, PNGase F-sensitive); N-glycosylation sites N290, N445 … (parent)
chain 1: AGSVRLAGGLTLGGLFPVHARGAAGRACGTLKKEQGVHRLEAMLYALDRINADPELLPGVRLGARLLDTCSRDTYALEQALSFVQALIRGRGDGEEASVRCPGGVPPLRAAPPERVVAVVGASASSVSIMVANVLRLFAIPQISYASTAPELSDSTRYDFFSRVVPPDSYQAQAMVDIVRALGWNYVSTLASEGNYGESGVEAFVQISREAGGVCIAQSIKIPREPKPGEFHKVIRRLMETPNARGIIIFANEDDIRRVLEATRQANLTGHFLWVGSDSWGSKISPILNLEEEAVGAITILPKRASIDGFDQYFMTRSLENNRRNIWFAEFWEENFNCKLTSSGGQSDDSTRKCTGEERIGQDSTYEQEGKVQFVIDAVYAIAHALHSMHQALCPGHTGLCPAMEPTDGRTLLHYIRAVRFNGSAGTPVMFNENGDAPGRYDIFQYQATNGSASSGGYQAVGQWAEALRLDMEALQWSGDPHEVPPSQCSLPCGPGERKKMVKGVPCCWHCEACDGYRFQVDEFTCEACPGHMRPTPNHTGCRPTPVVRLTWSSPWAALPLLLAVLGIMATTTIIATFMRHNDTPIVRASGRELSYVLLTGIFLIYAITFLMVAEPCAAVCASRRLLLGLGTTLSYSALLTKTNRIYRIFEQGKRSVTPPPFISPTSQLVITFGLTSLQVVGVIAWLGAQPPHSVIDYEEQRTVDPEQARGVLKCDMSDLSLIGCLGYSLLLMVTCTVYAIKARGVPETFNEAKPIGFTMYTTCIIWLAFVPIFFGTAQSAEKIYIQTTTLTVSLSLSASVSLGMLYVPKTYVILFHPEQNVQKRKRSLKKTSTMAAPPKSENSEDAK
chain 2: DCWLIEGDKGYVWLAICSQNQPPYETIPQHINSTVHDLRLNENKLKAVLYSSLNRFGNLTDLNLTKNEISYIEDGAFLGQTSLQVLQLGYNRLSNLTEGMLRGMSRLQFLFVQHNLIEVVTPTAFSECPSLISIDLSSNRLSRLDGATFASLASLMVCELAGNPFNCECDLFGFLAWLVVFNNVTKNYDRLQCESPREFAGYPLLVPRPYHSLNAITVLQAKCRNGSMPARPVSHPTPYSTDAQREPDENSGFNPDEILSVEPPASSTTDASAGPAIKLHQVTFTSATLVVIIPHPYSKMYVLVQYNNSYFSDVMTLKNKKEIVTLDKLRAHTEYTFCVTSLRNSRRFNHTCLTFTTRDLVPGDLAPSTSTTTHY

Variants of: B1
Experiment: pull-down
Conditions: with ELFN2 extracellular domain fused to human Fc [mouse]; parent: 1; read off a plot
Assay Metric: ratio to parent

[[record]]
variant_spec = "chain 1 N450Q"
data_value = 0.32


(P) chain 1 N422Q
(Q) chain 1 N538Q
(R) chain 1 N267Q
Query: # sort list by recorded ratio to parent, greatest to least Your reply should list the labels following the order given in the request.
Result: R, Q, P
(R: 0.52, Q: 0.32, P: 0.04)
